- assay text: qHTS drug screen for cell cycle checkpoint inhibitors in PARPi-resistant BRCA-mutant ovarian cancer cell lines. (AID 1963452)
- condition context: PEO1/OlaR viability, CellTiter-Glo luminescence, 96 h; measured here: PEO4 Z-AUC; stronger effect = lower value
Please assign no whenever Z-AUC is at or above -0.2, and yes whenever it is below.

Worked cases, answers included:
- compound: "Oc1ccc(OCc2ccccc2)cc1"
  classification: "no"
- compound: "O=c1c(O)c(-c2cc(O)c(O)c(O)c2)oc2cc(O)cc(O)c12"
  classification: "no"
- compound: "CC(=O)NC[C@H]1CN(c2ccc(N3CCOCC3)c(F)c2)C(=O)O1"
  classification: "yes"

-- ask API: query returns whether the compound falls strictly under -0.2 in Z-AUC. Query: `CCN(CC)CCOc1ccc(Nc2ncc3cc(-c4c(Cl)cccc4Cl)c(=O)n(C)c3n2)cc1`
-- reply yes

-- ask Bench note: check whether `O=C(NCCO[N+](=O)[O-])c1cccnc1` shows Z-AUC below -0.2
-- reply yes

-- ask Here's an entry: O=C1c2c(O)cc(O)cc2OC(c2ccc(O)c(O)c2)C1O (configuration not stated) . Is its Z-AUC below -0.2?
-- reply yes

-- ask I wonder whether `CN(C)c1ccc2nc3ccc(=[N+](C)C)cc-3sc2c1` has Z-AUC below -0.2. Can you tell?
-- reply yes

-- ask For this compound, is Z-AUC lower than -0.2? `CC(C)Oc1ccc2c(=O)c(-c3ccccc3)coc2c1`
-- reply no

-- ask Say whether its Z-AUC is strictly beneath -0.2. Entry: `C[C@H](Cc1ccc(O)c(O)c1)[C@@H](C)Cc1ccc(O)c(O)c1`
-- reply no

-- ask Please determine if `O=C(O)c1cccc(-c2noc(-c3ccccc3F)n2)c1` is below -0.2 in terms of Z-AUC.
-- reply no

-- ask Say whether its Z-AUC is strictly beneath -0.2. Entry: `N[C@@H](Cc1cc(I)c(Oc2cc(I)c(O)c(I)c2)c(I)c1)C(=O)O`
-- reply no

-- ask Does `CC[C@]1(O)C[C@H]2CN(CCc3c([nH]c4ccccc34)[C@@](C(=O)OC)(c3cc4c(cc3OC)N(C=O)[C@H]3[C@@](O)(C(=O)OC)[C@H](OC(C)=O)[C@]5(CC)C=CCN6CC[C@]43[C@@H]65)C2)C1` have Z-AUC strictly under -0.2?
-- reply yes

-- ask Please determine if `CCN(CC)C(=S)SSC(=S)N(CC)CC` is below -0.2 in terms of Z-AUC.
-- reply no

-- ask # check: Z-AUC < -0.2 for CCCCC(CC)COC(=O)C(C#N)=C(c1ccccc1)c1ccccc1 (configuration not stated)
-- reply no

* * *

- System: MKL-2
- assay text: qHTS assay to identify novel small-molecules to repurpose for Merkel cell carcinoma treatment (AID 1296009); also: nearly all actives have a fitted effect of over 60% in size
- condition context: MCC and control cell lines, CellTiter-Glo viability, 72 h; series mostly up to 46 µM
Results filed as inconclusive are left out. The source made the active and inactive calls. The call rests on the fitted dose curve; in most records, active means well fitted inhibition curve with a large enough effect; inconclusive means small, poorly fitted or top-dose-only effect; inactive means flat fitted curve, though single readings scatter.
Hello, when you answer, please use one of the following outcomes: true (1) for active, false (0) for inactive

- record smiles: "Clc1ccc2c(N3CCN(CCCN4CCN(c5ccnc6cc(Cl)ccc56)CC4)CC3)ccnc2c1"
  target under test: "MKL-2"
  classification: "false (0)"

-- ask For this compound, state the assay outcome: `COc1cc(OC)c(C(=O)CCCN2CCCC2)c(OC)c1`
-- reply false (0)

-- ask Answer briefly: the call reported for `O=C1NC(=O)C(c2ccccc2[N+](=O)[O-])=C1Nc1ccc(O)c(Cl)c1` in this assay.
-- reply false (0)

-- ask Per the assay record, what outcome was assigned to `Cc1cc(=O)c2c(O)c3c(O)cc(=O)c4c3c3c(cc(O)c1c23)C(C)(C)C=4O` ?
-- reply false (0)

-- ask What classification did `CCN(CC)CCOc1ccc(Nc2ncc3cc(-c4c(Cl)cccc4Cl)c(=O)n(C)c3n2)cc1` end up with in this test?
-- reply true (1)
